Experiment: 5-FU pharmacokinetics in pigs with topical eniluracil (Example 6)
Assay type: in vivo
Settings: pig, plasma, iv, 6 mg/kg, 5-FU 6 mg/kg bolus; Controls (no ointment); Day −3; read-out: 5-FU Half-Life, Mean (SD)
REPORTED METRIC: half-life (min)

{"columns": ["COMPOUND", "UNIT NAME", "REPORTED VALUE"],
 "data": [
  ["O=c1[nH]cc(F)c(=O)[nH]1 [5-FU, 5-Fluorouracil]", "min", 5.51]
]}

====

Assay: 5-FU pharmacokinetics in pigs with topical eniluracil (Example 6)
Type: in vivo
Conditions: pig, plasma, iv, 6 mg/kg, 5-FU 6 mg/kg bolus; Controls (no ointment); Day 14; read-out: 5-FU Half-Life, Mean (SD)
Protocol: This study was carried out to determine the plasma pharmacokinetics of eniluracil (EU) after topical administration and to evaluate the effect of topical eniluracil application on 5-FU pharmacokinetics, peripheral blood mononuclear cell (PBMC) dihydropyrimidine dehydrogenase (DPD) function, and levels of DPD activity in the skin in vivo. […]

{"columns": ["COMPOUND", "half-life / min"],
 "data": [
  ["O=c1[nH]cc(F)c(=O)[nH]1 [5-FU, 5-Fluorouracil]", 9.74]
]}
